Recorded values, source patent EP4059949A1.

# STUDY TARGET: complement component C3b (obtained after hydrolysis of C3) (UniProt P01024 23-667; P01024 749-1663)
# Sequence (P01024 23-667 limits assumed, chain 1 of 2): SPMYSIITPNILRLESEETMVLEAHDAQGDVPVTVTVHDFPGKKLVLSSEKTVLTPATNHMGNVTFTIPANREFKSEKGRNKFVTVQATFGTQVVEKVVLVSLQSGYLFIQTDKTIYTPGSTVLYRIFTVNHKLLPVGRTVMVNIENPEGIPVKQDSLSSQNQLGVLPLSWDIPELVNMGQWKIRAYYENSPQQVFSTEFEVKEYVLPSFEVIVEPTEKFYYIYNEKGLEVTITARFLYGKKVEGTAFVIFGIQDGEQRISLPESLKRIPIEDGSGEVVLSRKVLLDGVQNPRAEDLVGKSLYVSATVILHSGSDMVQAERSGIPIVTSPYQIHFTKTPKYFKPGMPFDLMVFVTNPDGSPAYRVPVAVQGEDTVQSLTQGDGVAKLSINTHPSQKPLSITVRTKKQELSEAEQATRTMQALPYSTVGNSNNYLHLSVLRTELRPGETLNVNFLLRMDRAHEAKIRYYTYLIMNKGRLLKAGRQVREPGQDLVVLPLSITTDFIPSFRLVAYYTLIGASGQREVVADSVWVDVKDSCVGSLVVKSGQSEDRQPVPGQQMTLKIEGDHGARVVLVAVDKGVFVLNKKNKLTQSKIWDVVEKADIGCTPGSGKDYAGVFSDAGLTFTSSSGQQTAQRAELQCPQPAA
# Sequence (P01024 749-1663 limits assumed, chain 2 of 2): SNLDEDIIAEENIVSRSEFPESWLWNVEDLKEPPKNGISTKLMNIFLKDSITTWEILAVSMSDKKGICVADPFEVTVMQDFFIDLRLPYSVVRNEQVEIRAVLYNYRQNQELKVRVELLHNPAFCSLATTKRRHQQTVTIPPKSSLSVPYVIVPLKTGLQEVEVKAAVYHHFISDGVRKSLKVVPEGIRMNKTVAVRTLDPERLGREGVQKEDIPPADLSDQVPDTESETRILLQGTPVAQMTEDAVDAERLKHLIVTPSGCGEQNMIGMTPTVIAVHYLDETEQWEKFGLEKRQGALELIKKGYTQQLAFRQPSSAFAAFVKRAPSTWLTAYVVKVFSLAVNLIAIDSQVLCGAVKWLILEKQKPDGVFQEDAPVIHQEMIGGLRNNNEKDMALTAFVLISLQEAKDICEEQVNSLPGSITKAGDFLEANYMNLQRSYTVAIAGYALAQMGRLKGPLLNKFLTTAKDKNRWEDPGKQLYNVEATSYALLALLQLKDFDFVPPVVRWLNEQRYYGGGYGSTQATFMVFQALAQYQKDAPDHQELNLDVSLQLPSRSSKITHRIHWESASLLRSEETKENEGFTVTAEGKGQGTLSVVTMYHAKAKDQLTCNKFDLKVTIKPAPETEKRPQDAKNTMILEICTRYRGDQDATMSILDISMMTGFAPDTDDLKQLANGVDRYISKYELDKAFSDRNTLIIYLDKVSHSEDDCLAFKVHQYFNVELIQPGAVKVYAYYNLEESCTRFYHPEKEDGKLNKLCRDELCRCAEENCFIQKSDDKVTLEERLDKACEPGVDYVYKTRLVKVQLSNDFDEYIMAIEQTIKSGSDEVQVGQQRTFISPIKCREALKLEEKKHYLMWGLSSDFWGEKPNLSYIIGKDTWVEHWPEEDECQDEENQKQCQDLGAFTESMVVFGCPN
# METHOD SUMMARY: biolayer interferometry; B10 made recombinantly in E. coli
REPORTED PROPERTY: Kd (nM)
Your answer is read as nM, so omit the unit and give the number.

Identify Kd associated with the binder anti-C3 Nanofitin B10 without N- or C-terminal tag (designed binder, also called Nter tag none, Cter tag none) MVKVKFDATGEEKEVDTSKISAVYRTGKDVLFSYDDNGKIGWGYVSEKDAPKELLDLLARAERE 18.5
